- assayOverview: NCI Yeast Anticancer Drug Screen. Data for the rad50 strain (AID 155);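 note: 0% = growth of vehicle-only cultures of the same strain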
- conditions: S. cerevisiae rad50 strain growth inhibition; at 50.0 µM; hits give high values
This is part of a sample that, as a whole, favours compounds with a hit. Of some 79,000 tested, about 15% had one in any assay.
Listed compounds paired with reported growth inhibition
Your answer should be a plain number; it is taken to be in %.

Example entries and their recorded answers appear below.
>  <compound>
O=c1[nH]c2cc([N+](=O)[O-])ccc2nc1/C(=N/Nc1ccccc1)C(O)c1ccc(Cl)cc1Cl (configuration not stated)

>  <measurementUnits>
%

>  <endpointValue>
41

$$$$
>  <compound>
CCCCCN(CCCCC)CC(O)c1ccc2cc3c(nc2c1)CCCC3 (configuration not stated)

>  <measurementUnits>
%

>  <endpointValue>
6.2

$$$$

QUERY: Form field: reported growth inhibition of CC1C(=O)CCC2CCCCC21 (configuration not stated)
RESULT: 18.1

QUERY: Can you check `O=[N+]([O-])c1ccc2nc(-c3ccccc3[N+](=O)[O-])[nH]c2c1` next?
RESULT: 0.2

QUERY: Can you check `c1ccc(C(CCN2CC3CCC(CC3)C2)c2ccccc2)cc1` next?
RESULT: 14.6

QUERY: Can you check `COc1ccccc1CNCCCCCNCCCCCCCCCCNCCCCCNCc1ccccc1OC` next?
RESULT: -32.4

---

- assayOverview: NCI Yeast Anticancer Drug Screen. Data for the bub3 strain (AID 167)
- conditions: S. cerevisiae bub3 mutant strain, at 50.0 µM, hits give high values
The panel holds about 79,000 compounds, 15% with a hit somewhere; the sample as a whole holds those more often.
Listed compounds paired with reported growth inhibition
Your answer should be a plain number; it is taken to be in %.

Example entries and their recorded answers appear below.
>  <compound>
COc1ccc(C2C(Cl)C(=O)N2NC(=O)Cc2ccccc2)cc1 (stereo unspecified)

>  <growth inhibition [%]>
-10.9

$$$$
>  <compound>
CN(C)CC(CN(C)C)C(=O)C(C)(C)C

>  <growth inhibition [%]>
7.8

$$$$
>  <compound>
CC(=O)c1ccc(N2CCCCC2)cc1

>  <growth inhibition [%]>
40

$$$$

Consider the additional compound presented here.
QUERY: Form field: reported growth inhibition of CCOC(=O)C(C#N)C1(C(C#N)C(=O)OCC)C(=O)Nc2ccccc21 (stereo unspecified)
RESULT: 24.7

---

- assayOverview: NCI Yeast Anticancer Drug Screen. Data for the rad50 strain (AID 155);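 note: 0% = growth of vehicle-only cultures of the same strain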
- conditions: S. cerevisiae rad50 strain growth inhibition; at 50.0 µM
About 79,000 compounds went through this panel and 15% of them were active in at least one assay; those are over-represented in the sample as a whole. Activity calls are given as the source filed them. No stated cut-off is given here; in the data, active means growth inhibition above about 70%; inactive means the rest.
Answer with one of the outcomes given here: TRUE for active, FALSE for inactive

>  <compound>
Cc1ccc(S(=O)(=O)Nn2c(O)c(C#N)c(-c3ccc(N(C)C)cc3)c(C#N)c2=O)cc1

>  <groupLabel>
FALSE

$$$$
>  <compound>
Cc1ccc(/C=N/NC(N)=O)cc1

>  <groupLabel>
FALSE

$$$$

QUERY: Please share the test call associated with `Cc1ccc(S(=O)(=O)NN=C2CCCCCCCCCCC2)cc1` .
RESULT: FALSE

---

- assayOverview: NCI Yeast Anticancer Drug Screen. Data for the bub3 strain (AID 167)
- conditions: S. cerevisiae bub3 mutant strain, at 50.0 µM
About 79,000 compounds went through this panel and 15% of them were active in at least one assay; those are over-represented in the sample as a whole. Calls of active or inactive are those of the source. No stated cut-off is given here; in the data, active means growth inhibition above about 70%; inactive means the rest.
Answer with one of the outcomes given here: active, inactive

>  <molecule>
CC(=O)Oc1cc2c3ccccc3ccc2c2ccccc12

>  <groupLabel>
inactive

$$$$

QUERY: Please share the test call associated with `CCC(=O)[CH-]C(=O)CC.CCC(=O)[CH-]C(=O)CC.[Cu+2]` .
RESULT: inactive

QUERY: Can you check COc1ccc2c(c1OC)C1(CCN(C)C)CC(O)CCC1C=C2 (stereo not drawn) next?
RESULT: inactive

QUERY: Can you check `COC(=O)CCc1cccnc1/C=N/O` next?
RESULT: inactive

QUERY: Can you check CC1(C)CC(=O)OC/C=C\CC(Cc2ccccc2)C(=O)C1 (stereo not drawn) next?
RESULT: inactive

QUERY: Can you check CCCCC(C(=O)O)C1CCCCC1 (stereo not drawn) next?
RESULT: inactive
